Reported values of IC (TGI) for individual entries
Tested on: HCT-15
Assay: NCI 60 cell panel SRB screen
Type: cell-based
Conditions: Homo sapiens; HCT-15, 5 log dose
Numeric only. Scale: µM

1) O=C(Nc1ccc(Cl)cc1)Nc1ccc(Oc2nncc3ccccc23)cc1 [Compound 7b] :: 3.08
2) O=C(Nc1ccccc1)Nc1ccc(Oc2nnc(Cl)c3ccccc23)cc1 [Compound 13a] :: 12.9
3) COc1cccc(NCc2nnc(Nc3ccc(Cl)cc3)c3ccccc23)c1 [Compound 16d] :: 7.56
4) O=C(Nc1ccc(Cl)cc1)Nc1ccc(Nc2nncc3ccccc23)cc1 [Compound 6b] :: 11.8

Incoming: I have this compound here, Cc1nnc(Nc2ccc(NC(=O)Nc3ccc(Cl)cc3)cc2)c2ccccc12 [Compound 6e] , and I need its recorded IC (TGI).
Outgoing: 4.53

Incoming: Item: Clc1ccc(Nc2nnc(COc3ccccc3)c3ccccc23)cc1 [Compound 17a]
Outgoing: 6.75

Incoming: Param item: Clc1ccc(Nc2nnc(CNc3ccccc3)c3ccccc23)cc1 [Compound 16a]
Outgoing: 9.39

###

Test system: EKVX
Assay: NCI 60 cell panel SRB screen
Assay type: cell-based, human
Details: Homo sapiens, 5 log dose
Exam item: assign t to entries whose IC (TGI) is below 7 µM and f to entries at or above 7 µM. Note that a value of exactly 7 µM receives f.

1. Cc1nnc(Nc2ccc(NC(=O)Nc3ccc(Cl)cc3)cc2)c2ccccc12 :: f
2. O=C(Nc1ccccc1)Nc1ccc(Oc2nnc(Cl)c3ccccc23)cc1 [Compound 13a] :: f

Incoming: Please check: IC (TGI) for O=C(Nc1ccc(Cl)cc1)Nc1ccc(Nc2nncc3ccccc23)cc1 , strictly under 7 µM or not?
Outgoing: f

Incoming: Now this one: O=C(Nc1ccc(Cl)cc1)Nc1ccc(Oc2nncc3ccccc23)cc1
Outgoing: t

Incoming: Follow-up item: COc1cccc(NCc2nnc(Nc3ccc(Cl)cc3)c3ccccc23)c1 [Compound 16d]
Outgoing: t

Incoming: Same again, this time with Clc1ccc(Nc2nnc(CNc3ccccc3)c3ccccc23)cc1 [Compound 16a]
Outgoing: f

Incoming: Also, Clc1ccc(Nc2nnc(COc3ccccc3)c3ccccc23)cc1 [Compound 17a] please.
Outgoing: f

###

Test system: SF-268
Experiment: NCI 60 cell panel SRB screen
Format: cell-based
Conditions: Homo sapiens; SF-268, 5 log dose
Consider the following compounds and their measured IC (TGI) readings.
The response must be a number in µM with no trailing unit.

Worked examples follow.
1. O=C(Nc1ccc(Cl)cc1)Nc1ccc(Nc2nncc3ccccc23)cc1 [Compound 6b] :: 28.1
2. Clc1ccc(Nc2nnc(CNc3ccccc3)c3ccccc23)cc1 [Compound 16a] :: 14.5

Attention now turns to another entry.
Incoming: GET /values?readout=IC (TGI)&item= COc1cccc(NCc2nnc(Nc3ccc(Cl)cc3)c3ccccc23)c1 [Compound 16d]
Outgoing: 10.5

###

Tested on: HL-60(TB)
Test: NCI 60 cell panel SRB screen
Assay type: cell-based
Conditions: Homo sapiens, 5 log dose, 48 h, read-out: LC50 (the source's name)
Recorded metric: CC50

In the examples that follow, each entry is paired with its recorded CC50.
1. O=C(Nc1ccccc1)Nc1ccc(Oc2nnc(Cl)c3ccccc23)cc1 [Compound 13a] :: > 25 µM
2. O=C(Nc1ccc(Cl)cc1)Nc1ccc(Oc2nncc3ccccc23)cc1 :: > 100 µM
3. Cc1nnc(Nc2ccc(NC(=O)Nc3ccc(Cl)cc3)cc2)c2ccccc12 :: 8.64 µM
4. Clc1ccc(Nc2nnc(CNc3ccccc3)c3ccccc23)cc1 [Compound 16a] :: > 25 µM
5. Clc1ccc(Nc2nnc(COc3ccccc3)c3ccccc23)cc1 [Compound 17a] :: > 25 µM
6. O=C(Nc1ccc(Cl)cc1)Nc1ccc(Nc2nncc3ccccc23)cc1 :: > 100 µM

--- query ---
Incoming: GET /values?readout=CC50&item= COc1cccc(NCc2nnc(Nc3ccc(Cl)cc3)c3ccccc23)c1 [Compound 16d]
Outgoing: > 25 µM

###

The molecules below have reported GI50 for OVCAR-5.
Dear colleague, please return just the value in µM, with no unit written.

1. Clc1ccc(Nc2nnc(CNc3ccccc3)c3ccccc23)cc1 [Compound 16a] :: 4.92

Incoming: Item: O=C(Nc1ccc(Cl)cc1)Nc1ccc(Oc2nncc3ccccc23)cc1 Test system: OVCAR-5 Read-out: GI50 Value: ?
Outgoing: 1.89

Incoming: // repeat for Cc1nnc(Nc2ccc(NC(=O)Nc3ccc(Cl)cc3)cc2)c2ccccc12 and report
Outgoing: 2.1

###

A collection of molecules and their measured GI50
Test system: MCF7
Assay: NCI 60 cell panel SRB screen
Format: cell-based
Details: Homo sapiens, MCF7
Write the answer as a number in nM, unit excluded.

1. O=C(Nc1ccccc1)Nc1ccc(Oc2nnc(Cl)c3ccccc23)cc1 [Compound 13a] :: 1320
2. Clc1ccc(Nc2nnc(COc3ccccc3)c3ccccc23)cc1 [Compound 17a] :: 1180
3. Cc1nnc(Nc2ccc(NC(=O)Nc3ccc(Cl)cc3)cc2)c2ccccc12 :: 2210
4. O=C(Nc1ccc(Cl)cc1)Nc1ccc(Nc2nncc3ccccc23)cc1 :: 1430

Incoming: Quick check: GI50 of COc1cccc(NCc2nnc(Nc3ccc(Cl)cc3)c3ccccc23)c1 [Compound 16d] ?
Outgoing: 930

###

Listed here are compounds together with their documented activity at 10 µM.
Test system: HOP-92
Experiment: NCI 60 cell panel SRB screen
Assay type: cell-based
Conditions: Homo sapiens; HOP-92, single dose 10 μM; read-out: percent cell growth promotion
Expressed in %, but write only the number.

Use the examples below as a reference point.
1) c1ccc(N2CCN(c3nncc4ccccc34)CC2)nc1 :: 102
2) Cc1nnc(N2CCN(c3ccccc3)CC2)c2ccccc12 :: 95.9
3) Clc1ccc(Nc2nnc(CNc3ccccc3)c3ccccc23)cc1 [Compound 16a] :: -19.4
4) CCOC(=O)N1CCN(c2nnc(C)c3ccccc23)CC1 :: 112
5) CCOC(=O)N1CCN(c2nncc3ccccc23)CC1 :: 104
6) O=C(Nc1ccc(Cl)cc1)Nc1ccc(Nc2nncc3ccccc23)cc1 :: 38.7

Incoming: activity at 10 µM for Cc1nnc(N2CCN(c3ccccc3F)CC2)c2ccccc12 ?
Outgoing: 112

###

Each item that follows carries a reported CC50.
System: SNB-19
Test: NCI 60 cell panel SRB screen
Format: cell-based
Details: Homo sapiens; SNB-19, 5 log dose, 48 h; read-out: LC50 (the source's name)

Incoming: Fill in the recorded CC50 for this compound, with SNB-19 as test system: Cc1nnc(Nc2ccc(NC(=O)Nc3ccc(Cl)cc3)cc2)c2ccccc12
Outgoing: 56.6 µM

Incoming: # iterate: Clc1ccc(Nc2nnc(COc3ccccc3)c3ccccc23)cc1 [Compound 17a]
Outgoing: > 25 µM

Incoming: Now the compound Clc1ccc(Nc2nnc(CNc3ccccc3)c3ccccc23)cc1 [Compound 16a]
Outgoing: > 25 µM

Incoming: Check O=C(Nc1ccc(Cl)cc1)Nc1ccc(Nc2nncc3ccccc23)cc1 too.
Outgoing: > 100 µM

###

Test system: HCT-116
Assay: NCI 60 cell panel SRB screen
Format: cell-based
Settings: Homo sapiens; HCT-116, 5 log dose
compounds and their reported IC (TGI)
Give the number; µM is assumed, so skip it.

Consider the reported IC (TGI) for these compounds:
1. O=C(Nc1ccc(Cl)cc1)Nc1ccc(Nc2nncc3ccccc23)cc1 :: 12
2. Clc1ccc(Nc2nnc(COc3ccccc3)c3ccccc23)cc1 [Compound 17a] :: 4.83
3. Clc1ccc(Nc2nnc(CNc3ccccc3)c3ccccc23)cc1 [Compound 16a] :: 5.02
4. Cc1nnc(Nc2ccc(NC(=O)Nc3ccc(Cl)cc3)cc2)c2ccccc12 :: 3.59
5. O=C(Nc1ccc(Cl)cc1)Nc1ccc(Oc2nncc3ccccc23)cc1 :: 1.2

Incoming: # lookup: IC (TGI) of COc1cccc(NCc2nnc(Nc3ccc(Cl)cc3)c3ccccc23)c1 [Compound 16d]
Outgoing: 4.2

Incoming: Moving on to O=C(Nc1ccccc1)Nc1ccc(Oc2nnc(Cl)c3ccccc23)cc1 [Compound 13a]
Outgoing: 9.77

###

Tested on: SK-MEL-28
Overview of recorded GI50 for various molecules
Quick reminder: number only, in nM, skip the unit.

1. Clc1ccc(Nc2nnc(CNc3ccccc3)c3ccccc23)cc1 [Compound 16a] :: 3670
2. O=C(Nc1ccc(Cl)cc1)Nc1ccc(Nc2nncc3ccccc23)cc1 [Compound 6b] :: 3040
3. O=C(Nc1ccccc1)Nc1ccc(Oc2nnc(Cl)c3ccccc23)cc1 [Compound 13a] :: 3570

Incoming: Consider the molecule Cc1nnc(Nc2ccc(NC(=O)Nc3ccc(Cl)cc3)cc2)c2ccccc12 [Compound 6e] and give its measured GI50.
Outgoing: 1630

Incoming: Again, but for Clc1ccc(Nc2nnc(COc3ccccc3)c3ccccc23)cc1 [Compound 17a]
Outgoing: 2840

Incoming: Item: O=C(Nc1ccc(Cl)cc1)Nc1ccc(Oc2nncc3ccccc23)cc1 [Compound 7b]
Outgoing: 420

Incoming: Same question, COc1cccc(NCc2nnc(Nc3ccc(Cl)cc3)c3ccccc23)c1 [Compound 16d] this time
Outgoing: 2620
